SYSTEM_TESTED: SARS-CoV RBD (SARS-CoV, UniProt P59594)
PROTOCOL_DESCRIPTION: ELISA
Provide the reported EC50 of each item.

BINDER	EC50
C103 (antibody, V domains shown) VH: QVQLQQWGAGLLKPSETLSLTCAVSGGSLSGFYWTWIRQPPGKGLEWIGETNHFGSTGYKPSLKSRVTISVDMSRNQFSLKVTSVTAADTAVYYCARKPLLYSDFSPGAFDIWGQGTMVTVSS VL: EIVLTQSPGTLSLSPGERATLSCRASQTVTANYLAWYQQKPGQAPRLLIYGASKRATGIPDRFSGSGSGTDFTLSISRLEPEDFAVYYCQQYTTTPRTFGGGTKVEIK	> 1 µg/mL
C211 (antibody, V domains shown) VH: EVQLVESGGGLVQPGGSLRLSCAASEFTVSSNYMSWVRQAPGKGLEWVSVIYSGGSTFYADSVKGRFTISRDNSKNTLYLQMNSLRPEDTAVYYCARDYGDFYFDFWGQGTLVTVSS VL: EIVMTQSPATLSVSPGERATLSCRASQSVSSNLAWYQQKPGQGPRLLIYGASTRATGIPARFSGSGSGTEFTLTISSLQSEDFAVYYCQQYNNWPRTFGQGTKVEIK	> 1 µg/mL
C106 (antibody, V domains shown) VH: QLQLQESGPGLVKPSETLSLTCTVSGASVSSGSYYWSWIRQPPGKGLEWIGYIYYSGSTNYNPSLKSRVTISVDTSKNQFSLKLSSVTAADTAVYYCARERPGGTYSNTWYTPTDTNWFDTWGQGTLVTVSS VL: SYELTQPPSVSVAPGKTARITCGGNNIGSKSVHWYQQKPGQAPVLVIYFDSDRPSGIPERFSGSNSGNTATLTISRVEAGDEADYYCQVWDSSRDHVVFGGGTKLTVL	0.107 µg/mL

Now look at this one.
Task item: Dear colleague, I am looking for the recorded EC50 of the following binder: C117 (antibody, V domains shown) VH: QVQLVESGGGVVQPGRSLRLSCAASGFTFSTYAMHWVRQAPGEGLEWVAVISYDGSNTYYADSVKGRFTISRDNSKNTLYLQMNSLRAEDTAVYYCARDPIWFGELLSPPFVHFDYWGQGTLVTVSS VL: QSVLTQPPSVSAAPGQKVTISCSGSSSNIGNNLVSWYQQLPGTAPKLLIYENNKRPSGIPDRFSGSKSGTSATLGITGLQTGDEADYYCGAWDSSLSAGGVYVFGTGTKVTVL
Reply: > 1 µg/mL
